# Test system: RPMI-8226 leukemia
# Experiment Description: NCI tumour cell line growth inhibition, 48 h
Measurement Name: TGI

stdin: I'd like to know its TGI. The molecule in question is CSc1c(C(=O)Nc2ccc(C)cc2)c(N)nn1-c1ccccc1
stdout: > 100 µM

stdin: Report TGI for COc1cc(C2C(Cl)C(=O)N2n2cnc3ccccc3c2=O)cc(OC)c1OC (centres undefined) please.
stdout: > 100 µM

stdin: What TGI value was documented for this molecule, Cc1cc(S(N)(=O)=O)c(SCc2nc(N)nc(N(C)C)n2)cc1Cl ?
stdout: > 10 µM

stdin: Name the reported TGI value associated with the molecule CCC1(OC(=O)CN2CCN(CCO)CC2)C(=O)OCc2c1cc1n(c2=O)Cc2cc3ccccc3nc2-1 (centres undefined)
stdout: 5.28 µM

stdin: I would be grateful if you could share the reported TGI for O=c1[nH]c2cc(C(F)(F)F)ccc2nc1Cc1ccccc1 .
stdout: > 100 µM

stdin: TGI for N#Cc1ccccc1NC(=O)C(=O)C(C(=O)c1ccccc1-c1ccccc1)C1OC(=O)c2ccccc21 (centres undefined) ?
stdout: 79.7 µM

stdin: If you can, please state the reported TGI value of CC(=O)Oc1ccccc1[C@H]1CC(=O)C[C@H](c2ccccc2OC(C)=O)C12C(=O)c1ccccc1C2=O .
stdout: > 100 µM

stdin: So what does the record say about TGI for O=C(c1ccccc1)c1nn(-c2ccc(Cl)cc2)c2nc3nc(-c4ccccc4)cc(=O)n3nc12 ?
stdout: > 100 µM

stdin: Which TGI is listed for N#Cc1cccc(C2ON=C(c3ccc([N+](=O)[O-])cc3)N2C23CC4CC(CC(C4)C2)C3)c1 (centres undefined) ?
stdout: > 100 µM

stdin: Recorded TGI of O=c1c(Cl)nnc2sc3ccccc3n12 , please.
stdout: > 100 µM

stdin: Entry N#C/C(=C\c1c(-c2ccccc2)[nH]c2ccccc12)C(=O)c1ccc(Cl)cc1 has what TGI?
stdout: 20 µM

stdin: Could you share which TGI value was measured for COc1c(Cl)ccc(Cl)c1C(=O)NNC(=O)c1c(Cl)c(Cl)c(Cl)c(Cl)c1-c1nc2ccc(C(=O)c3ccccc3)cc2[nH]1 ?
stdout: 90.8 µM

stdin: // returns reported TGI for input CC(O)c1c2c(cc3c1CC1(C3)Cc3cc4c(c(C(C)O)c3C1)CCC4)CCC2 (centres undefined)
stdout: 38.5 µM

stdin: Entry under review: Nc1nc(N)[n+]([O-])c(N)c1NCO . Reported TGI?
stdout: > 100 µM

stdin: # TGI lookup, item CC(=O)N1c2ccccc2C(C)(C)OC1C(Cl)(Cl)Cl (centres undefined)
stdout: 33.6 µM

stdin: Form field: reported TGI of O=C1C2CC(Cl)C(SSC3CC4C(=O)N(SC(Cl)(Cl)C(Cl)Cl)C(=O)C4CC3Cl)CC2C(=O)N1SC(Cl)(Cl)C(Cl)Cl (centres undefined)
stdout: 5.35 µM

stdin: Look up TGI: COc1ccccc1/C=C1\Sc2scc(-c3cccc([N+](=O)[O-])c3)[n+]2C1=O
stdout: 9.28 µM

stdin: Name the reported TGI value associated with the molecule N#C/C(=C1\N=C(c2ccccc2O)Oc2ccccc21)c1ccc([N+](=O)[O-])cc1
stdout: > 100 µM

stdin: Give its TGI value. Item: CCOC(=O)C1C=C2O[C@@H]3OC4(CCCCC4)O[C@@H]3C2[C@H]2C(=O)C=CC(=O)[C@@]12C(=O)OC (some centres undefined)
stdout: 8.06 µM

stdin: May I ask what TGI has been recorded for CC(=O)Oc1c(C)cc(-c2cc(C)c(OC(C)=O)c(C)c2)cc1C ?
stdout: > 100 µM

stdin: What value of TGI has been reported for the following molecule? O=C1C(C(O)(C(F)(F)Cl)C(F)(F)Cl)CCC1C(O)(C(F)(F)Cl)C(F)(F)Cl (centres undefined)
stdout: > 10 µM

stdin: Value lookup for TGI; key = CCOC(=O)c1cccc(NC(=O)CBr)c1
stdout: 3.74 µM

stdin: I have this molecule here, CC(=O)Oc1c(C)n(CCCl)ccc1=O , and I need its recorded TGI.
stdout: > 100 µM

stdin: Using the record for CN(C)CCN1C(=O)CC[C@@]2(C)C1=CC[C@@H]1[C@@H]2CC[C@@]2(C)[C@H]1CC[C@]2(C)O , report its TGI.
stdout: > 100 µM

stdin: // query TGI value for entry NC(N)=NS(=O)(=O)c1ccc(NC(=O)c2cccc3c(Nc4ccc(S(=O)(=O)N=C(N)N)cc4)c4ccc(Cl)cc4nc23)cc1
stdout: > 100 µM

stdin: Can you look up the measured TGI of Cc1nc2c(o1)C(=O)c1ccccc1C2=NC1CCCCC1N (centres undefined) for me?
stdout: 4.2 µM

stdin: I have this molecule here, O/N=C1/C(=C/c2ccc(F)cc2)CCCC1C(NO)c1ccc(F)cc1 (centres undefined) , and I need its recorded TGI.
stdout: 49.8 µM

stdin: // TGI lookup, key: O/N=C1\CCc2cc(-c3nc(C4CCNCC4)[nH]c3-c3ccncc3)ccc21
stdout: > 25 µM

stdin: If you can, please state the reported TGI value of O=C(O)c1cccc(S(=O)(=O)NN2C(=O)CSC2c2ccccc2)c1 (centres undefined) .
stdout: > 100 µM

stdin: Please give the measured TGI for this molecule: O=C1c2ccccc2-c2c1c1ccccc1c(=O)n2CCO
stdout: > 100 µM

stdin: // lookup TGI for CC(=O)OCCC1c2ccccc2-n2nc(-c3ccccc3)c(O)c21 (centres undefined)
stdout: 33.7 µM

stdin: Find the recorded TGI belonging to Cc1nc(-c2ccccc2)c(C)n2c1nc1ccccc12 and report it.
stdout: 40.6 µM

stdin: Return reported TGI; argument: O=C(O)CCC(NC(=O)c1ccc(Nc2nc3ccccc3nc2C(=O)O)cc1)C(=O)O (centres undefined)
stdout: > 100 µM

stdin: Reported TGI for OC1c2ccccc2[C@@H]2[C@H]1[C@@H](c1ccccc1)C1(Cc3ccccc3C1O)[C@H]2c1ccccc1 (some centres undefined) : what is it?
stdout: 9.89 µM

stdin: Recorded TGI of COc1ccc(-c2cc(-c3ccc(Nc4nc(Nc5ccc(Cl)cc5)nc(Nc5ccc(Cl)cc5)n4)cc3)nc(N)c2C#N)cc1 , please.
stdout: > 21.9 µM

stdin: Recorded TGI for Nc1ccn(C=C=CCO)c(=O)n1 , please?
stdout: > 1000 µM

stdin: Param item = CC(=O)OCC1OC(Nc2ccc3nc(C)n(-c4cccc(C)c4)c(=O)c3c2)C(OC(C)=O)C(OC(C)=O)C1OC(C)=O (centres undefined) ; retrieve measured TGI.
stdout: > 62.5 µM

stdin: Which measured TGI value corresponds to O=[N+]([O-])c1ccc(-c2ccc(/C=N/n3c(-c4ccc(Cl)cc4)n[nH]c3=S)o2)cc1 ?
stdout: > 31.6 µM

stdin: TGI for Cc1cn(CC2=NCCN2)c(=O)[nH]c1=O ?
stdout: > 100 µM
